Data provenance: PubChem BioAssay (NCATS)

system: TAB109; experiment: qHTS profiling for inhibitors of Plasmodium falciparum proliferation (AID 504749); note: nearly all actives have a fitted effect of over 60% in size; settings: P. falciparum in erythrocytes, SYBR Green DNA, 72 h; series mostly up to 12.8 µM
Results filed as inconclusive are left out. Calls of active or inactive are those of the source. Calls come from the whole dose curve; as a rule, active = well fitted inhibition curve with a large enough effect; inconclusive = small, poorly fitted or top-dose-only effect; inactive = flat fitted curve, though single readings scatter.
Please answer using one outcome listed in active, inactive

### Prompt Called result for "C[C@@H]1CCC[C@H](C)N1NC(=O)c1ccc(Cl)c(S(N)(=O)=O)c1"
### Response inactive

### Prompt Short answer needed: outcome of this test for "CC(=O)N(CC(O)CN(C(C)=O)c1c(I)c(C(=O)NC[C@@H](O)CO)c(I)c(C(=O)NC[C@@H](O)CO)c1I)c1c(I)c(C(=O)NC[C@@H](O)CO)c(I)c(C(=O)NC[C@@H](O)CO)c1I" ?
### Response inactive

### Prompt Outcome logged for "NC(=O)c1cc[n+](CC2=C(C(=O)O)N3C(=O)[C@@H](NC(=O)[C@H](c4ccccc4)S(=O)(=O)[O-])[C@@H]3SC2)cc1" in this assay:
### Response active

### Prompt How was "CCCN(CCC)C(=O)[C@@H](CCC(=O)O)NC(=O)c1ccccc1" classified in this test?
### Response inactive

### Prompt Field: outcome | Entry: "CC[C@H](NC(C)C)[C@H](O)c1ccc(O)c(O)c1"
### Response inactive

### Prompt Each compound tested received a call. Report the one for "CCN(CC)CCC[C@H](C)Nc1c2ccc(Cl)cc2nc2ccc(OC)cc12" .
### Response active

### Prompt Which outcome was assigned to "CCCN[C@@H](C)C(=O)Nc1ccccc1C" in this test?
### Response inactive

### Prompt Please indicate how the test categorized "N[C@@H](CO)C(=O)NNCc1ccc(O)c(O)c1O" .
### Response inactive

### Prompt Could you kindly confirm the outcome this assay logged for "CCN[C@@H]1C[C@H](C)S(=O)(=O)c2sc(S(N)(=O)=O)cc21" ?
### Response inactive

### Prompt // param item: "C[C@H](NCCc1ccc(O)cc1)[C@@H](O)c1ccc(O)cc1" ; yields the recorded call
### Response inactive

### Prompt What was the test verdict on "COc1cc(/C=C/C(=O)/C=C(O)/C=C/c2ccc(O)c(OC)c2)ccc1O" ?
### Response inactive

### Prompt Name the outcome recorded for "CN(C)[C@H]1C(=O)C(C(=O)NCN2CCCC2)=C(O)[C@]2(O)C(=O)C3=C(O)c4c(O)cccc4[C@@](C)(O)[C@H]3C[C@@H]12" in the assay.
### Response inactive

### Prompt Each compound tested received a call. Report the one for "Cc1cc(/C=C\c2ccc3cc(N(C)C)ccc3[n+]2C)c(C)n1-c1ccccc1" .
### Response active

====

molecular target: Glucocorticoid receptor (Homo sapiens) (UniProt P04150); experiment: GR-EFC Redistribution (AID 451); details: CHO-K1 GR-EFC translocation, beta-gal luminescence, 2 h; note: potency is the fitted concentration of half-maximal effect
Sequence (P04150 whole entry, looked up): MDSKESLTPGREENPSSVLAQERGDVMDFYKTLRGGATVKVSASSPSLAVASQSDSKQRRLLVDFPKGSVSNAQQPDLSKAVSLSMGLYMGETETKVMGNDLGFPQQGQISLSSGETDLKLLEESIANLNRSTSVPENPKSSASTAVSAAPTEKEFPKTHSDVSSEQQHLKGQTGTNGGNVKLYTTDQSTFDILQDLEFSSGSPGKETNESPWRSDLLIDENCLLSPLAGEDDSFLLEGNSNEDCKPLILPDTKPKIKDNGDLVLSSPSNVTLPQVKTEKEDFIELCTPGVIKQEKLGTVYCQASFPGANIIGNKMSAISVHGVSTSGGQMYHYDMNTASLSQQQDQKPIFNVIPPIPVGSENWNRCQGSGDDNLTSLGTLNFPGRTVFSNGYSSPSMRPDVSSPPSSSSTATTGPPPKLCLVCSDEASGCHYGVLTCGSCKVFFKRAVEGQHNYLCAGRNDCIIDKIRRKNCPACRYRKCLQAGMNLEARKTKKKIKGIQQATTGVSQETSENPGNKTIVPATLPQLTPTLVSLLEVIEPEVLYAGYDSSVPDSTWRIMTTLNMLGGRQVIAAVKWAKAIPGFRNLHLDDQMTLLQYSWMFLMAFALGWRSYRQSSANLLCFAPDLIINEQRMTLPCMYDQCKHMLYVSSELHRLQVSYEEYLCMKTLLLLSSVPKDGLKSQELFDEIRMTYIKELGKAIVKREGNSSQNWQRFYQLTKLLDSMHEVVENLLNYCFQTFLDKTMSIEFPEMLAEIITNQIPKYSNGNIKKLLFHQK
Active and inactive are the calls of the source. The call rests on the fitted dose curve.
ENDPOINT NAME: Potency

### Prompt For "CN(C)c1ccc(-c2cncnc2Nc2ccc(F)cc2)cc1" , what is its reported Potency?
### Response > 46 µM (inactive)

### Prompt Suppose we examine the compound "COc1ccc(-c2nc3cnc(OC)nc3n(-c3ccccc3)c2=O)cc1" ; what Potency value has been reported?
### Response > 46 µM (inactive)

### Prompt Could you tell me which Potency is on file for "Cc1noc(C)c1C(=O)N1CCC2(CC1)CN(Cc1cc(C(F)(F)F)cc(C(F)(F)F)c1)C2" ?
### Response > 46 µM (inactive)

### Prompt Fill blank: measured Potency of the compound "COC(=O)N1CCC2(CCCN(Cc3ccccc3)C2)CC1" is ____.
### Response > 46 µM (inactive)

### Prompt Which measured Potency value corresponds to "O=C(c1csnn1)N1CCC2(CC1)CCN(c1ccccn1)CC2" ?
### Response > 46 µM (inactive)

### Prompt # input compound: "O=C(c1cnccn1)N1CCC[C@@]2(CCN(Cc3ccncc3)C2)C1" ; wanted: its Potency
### Response > 46 µM (inactive)

### Prompt Name the reported Potency value associated with the compound "COc1ncc2nc(-c3cn(C)c4ccccc34)c(=O)n(CCc3ccccc3)c2n1"
### Response > 46 µM (inactive)

### Prompt I'd like to know its Potency. The compound in question is "CC(=O)N1CCC[C@@]2(CCN(Cc3ccc(C#N)cc3)C2)C1"
### Response > 46 µM (inactive)

### Prompt I am curious: what Potency value has been reported for "COc1ccc(C(=O)N2CCC3(CCCN(c4ccncc4)C3)CC2)cc1" ?
### Response > 46 µM (inactive)

### Prompt Reported Potency for "O=S(=O)(c1ccccc1)N1CCC[C@@]2(CCN(c3ncccn3)C2)C1" : what is it?
### Response > 46 µM (inactive)

### Prompt Quick one: Potency for "O=c1c(-c2ccccc2)nc2cncnc2n1C1CC1" ?
### Response > 46 µM (inactive)

====

test: qHTS Assay for Lipid Storage Modulators (AID 1519); settings: Drosophila S3 cells, BODIPY lipid droplet/cell ratio, laser cytometry; measured here: cell count channel max response; cells loaded with oleic acid
Results filed as inconclusive are left out.
Threshold check on max response: at or above 10% gives label 1, strictly below gives label 0.

### Prompt Dear colleague, could you confirm whether "O=C(Nc1ccccc1)N1CCCC2(CCNCC2)C1" has max response at or above 10%?
### Response label 1

### Prompt Determine whether this molecule has max response no lower than 10%: "COc1ccccc1CN1CCC2(CCNCC2)CC1"
### Response label 0

### Prompt Given the entry "O=c1c(-c2ccccc2)nc2cnc(Oc3cccc(Cl)c3)nc2n1C[C@H]1CCCO1" , answer whether its max response meets or surpasses 10%.
### Response label 1

### Prompt max response >= 10% for "COCC(=O)N1CCC[C@@]2(CCN(c3ccccn3)C2)C1" ?
### Response label 0

### Prompt Dear colleague, could you confirm whether "COc1ccc(NC(=O)N2CCCC3(CCN(C(C)=O)CC3)C2)cc1" has max response at or above 10%?
### Response label 1

### Prompt hey, is max response for this one >= 10%? "O=C(c1ccncc1)N1CCC2(CCN(Cc3ccncc3)CC2)CC1"
### Response label 1

### Prompt Does the reported max response for "O=C(Nc1ccccc1)N1CC[C@@]2(CCCN(C(=O)c3cccc(F)c3)C2)C1" fall at or above the 10% mark?
### Response label 1

### Prompt Is max response at least 10%? Consider "Cc1cnc(CNc2ncnc3ccc(-c4ccccc4C(F)(F)F)cc23)cn1"
### Response label 0

### Prompt Please check the record "COC(=O)N1CCC2(CCN(C(=O)Nc3cccc(C#N)c3)CC2)CC1" and state if its max response is at or above 10%.
### Response label 1

### Prompt Quick check: does "COc1cccc(-c2nccc(NC3CCNCC3)n2)c1" have max response greater than or equal to 10%?
### Response label 0

====

tested on: CP256; assay: qHTS profiling for inhibitors of Plasmodium falciparum proliferation (AID 504749); note: nearly all actives have a fitted effect of over 60% in size; conditions: P. falciparum in erythrocytes, SYBR Green DNA, 72 h; series mostly up to 12.8 µM
Results filed as inconclusive are left out. Calls of active or inactive are those of the source. The call rests on the fitted dose curve; in most records, active means well fitted inhibition curve with a large enough effect; inconclusive means small, poorly fitted or top-dose-only effect; inactive means flat fitted curve, though single readings scatter.
One label from this list, please: label 1 = active, label 0 = inactive

### Prompt Could you check what this test reported for "C[C@@H](CN(C)C)CN1c2ccccc2CCc2ccccc21" ?
### Response label 0

### Prompt Look up the recorded call for "C[C@@H](C(=O)O)c1ccc(C(=O)c2cccs2)cc1" in this test.
### Response label 0

### Prompt Give the logged outcome of this assay for the following molecule: "CO[C@H]1C[C@@H](O[C@@H]2[C@H](C)[C@H](O[C@@H]3O[C@@H](C)C[C@@H](N(C)C)[C@@H]3O)[C@H](C)C[C@]3(CO3)C(=O)[C@H](C)[C@H](O)[C@H](C)[C@H](C)OC(=O)[C@@H]2C)O[C@@H](C)[C@H]1O"
### Response label 0

### Prompt Which outcome was assigned to "NC(=O)c1cc[n+](CC2=C(C(=O)O)N3C(=O)[C@@H](NC(=O)[C@H](c4ccccc4)S(=O)(=O)[O-])[C@@H]3SC2)cc1" in this test?
### Response label 1

### Prompt # outcome recorded in this test, key = C[N+](C)(C)CC(O)CC(=O)O (stereo unspecified)
### Response label 0

### Prompt Hi, sorry to bother you, what did the test record for "NC(N)=NC[C@@H]1COC2(CCCCC2)O1" ?
### Response label 0

### Prompt Record request — test call for "CC(C)(O/N=C(\C(=O)N[C@@H]1C(=O)N2C(C(=O)[O-])=C(C[n+]3ccccc3)CS[C@@H]12)c1csc(N)n1)C(=O)O"
### Response label 0

### Prompt How was "COc1c(O)cc2c(c1O)[C@@H]1O[C@@H](CO)[C@@H](O)[C@@H](O)[C@@H]1OC2=O" classified in this test?
### Response label 0

### Prompt # lookup: test call for "CC(C)(C)NC[C@H](O)c1cc(O)cc(O)c1"
### Response label 0

### Prompt Fill in: this test's call for "CC[C@@]12CCCN3CCc4c(n(c5ccccc45)C(=O)C1)[C@H]32" is ___
### Response label 0

### Prompt Assay outcome for "C[C@H](NCCc1ccc(O)cc1)[C@@H](O)c1ccc(O)cc1" : what was it?
### Response label 0

### Prompt Assay outcome for "CC1(C)S[C@@H]2[C@H](NC(=O)[C@H](C(=O)O)c3ccsc3)C(=O)N2[C@H]1C(=O)O" : what was it?
### Response label 0

### Prompt Dear all, I need the recorded test outcome for "CN(C)CC/C=C1\c2ccccc2CSc2ccccc21" , thank you.
### Response label 0

### Prompt # outcome recorded in this test, key = "C/C=C\C(=O)N(CC)c1ccccc1C"
### Response label 0

### Prompt What did this assay record as the result for "O=C(O)/C=C\c1ccc(Cn2ccnc2)cc1" ?
### Response label 0

### Prompt Assay outcome for "CCN1C(=O)N[C@@H](c2ccccc2)C1=O" : what was it?
### Response label 0

### Prompt Hi team, can someone confirm the assay call for "O=c1[nH]c(=O)n([C@@H]2C[C@H](O)[C@H](CO)O2)cc1I" ?
### Response label 0

### Prompt // return assay outcome for "CC1(C)Oc2ccc(C#N)cc2[C@H](N2CCCC2=O)[C@H]1O"
### Response label 0

### Prompt Record lookup: outcome of this test for "CN(N=O)C(=O)N[C@H]1[C@@H](O)[C@H](O)[C@H](CO)O[C@@H]1O" ?
### Response label 0

### Prompt Hi team, can someone confirm the assay call for "CCC[C@H]1C(=O)N2C(N(C)C)=Nc3ccc(C)cc3N2C1=O" ?
### Response label 0

### Prompt Which outcome did this test record for the molecule "CCCN[C@@H](C)C(=O)Nc1c(C)csc1C(=O)OC" ?
### Response label 0

### Prompt Give the logged outcome of this assay for the following molecule: "CC(=O)Nc1c(I)c(C(=O)N[C@H]2[C@@H](O)[C@H](O)[C@H](CO)O[C@@H]2O)c(I)c(N(C)C(C)=O)c1I"
### Response label 0

### Prompt Hi, sorry to bother you, what did the test record for "C[C@@H]1CCC[C@H](C)N1NC(=O)c1ccc(Cl)c(S(N)(=O)=O)c1" ?
### Response label 0

### Prompt // return assay outcome for O=C(Cc1cccs1)NC1C(=O)N2C(C(=O)[O-])=C(C[n+]3ccccc3)CSC12 (stereo unspecified)
### Response label 0

### Prompt Could you kindly confirm the outcome this assay logged for "CC[C@H](NC(C)C)[C@H](O)c1ccc(O)c(O)c1" ?
### Response label 0

### Prompt What call does the record list for "CN[C@@H]1[C@H](O[C@@H]2O[C@H](CO)[C@@H](N)[C@H](O)[C@@H]2O)O[C@H]2C[C@@H](N)[C@@H](O[C@H]3[C@@H](O)[C@H](O)[C@H](N)C[C@@H]3N)O[C@H]2[C@H]1O" ?
### Response label 0

### Prompt Hi, sorry to bother you, what did the test record for "C[n+]1ccccc1/C=N\O" ?
### Response label 0

### Prompt Record lookup: outcome of this test for "Cc1cc(/C=C\c2ccc3cc(N(C)C)ccc3[n+]2C)c(C)n1-c1ccccc1" ?
### Response label 1

### Prompt Each molecule tested received a call. Report the one for "NC(=O)OC[C@H](O)COc1ccc(Cl)cc1" .
### Response label 0

### Prompt Per the records of this test, what outcome belongs to CN1CCCC[C@@H]1CCN1c2ccccc2Sc2ccc(S(C)=O)cc21 (stereo partly specified) ?
### Response label 0

### Prompt Name the outcome recorded for "COCCc1ccc(OC[C@H](O)CNC(C)C)cc1" in the assay.
### Response label 0

### Prompt Recorded test outcome, item "COc1ccccc1OC[C@H](O)COC(N)=O"
### Response label 0

### Prompt Record lookup: outcome of this test for "CCCN[C@@H](C)C(=O)Nc1ccccc1C" ?
### Response label 0

### Prompt Would you mind telling me which call this test gave "NS(=O)(=O)c1cc([C@@]2(O)NC(=O)c3ccccc32)ccc1Cl" ?
### Response label 0

### Prompt State the result this test recorded for "C[N+]1(C)CCC[C@@H](OC(=O)C(O)(c2ccccc2)c2ccccc2)C1" .
### Response label 0

### Prompt For this molecule, state the assay outcome: "CC(C)NC[C@H](O)c1cc(O)cc(O)c1"
### Response label 0
